# Tested on: A549
# Experiment: NCI tumour cell line growth inhibition, 48 h
Calls of active or inactive are those of the source. Rule as the data show it: active = GI50 up to about 1.1 µM and inactive = higher.
Outcome (select one): 1.0 = active, 0.0 = inactive

Check out these entries, answers already filled in.
CC(CO)C1=CC(C#CCOCc2ccccc2)N(C(=O)Oc2ccccc2)c2ccccc21 (stereo not given)    0.0
CCOC(=O)C(C(O)c1ccc([N+](=O)[O-])cc1)P(=O)(OCC)OCC (stereo not given)    0.0
c1ccc2c3c([nH]c2c1)C1C2CCCCN2C(c2ccncc2)N1CC3 (stereo not given)    0.0
CC(=N\c1ccncc1)/C(C)=N/c1ccncc1    0.0
COC(=O)C1C=CCON2CCc3c(n(S(=O)(=O)c4ccccc4)c4ccccc34)C12 (stereo not given)    0.0

Query :: Entry COc1ccc2oc(C(=O)N3CC(CCl)c4ccc(N)cc43)cc2c1 (stereo not given) : call = ?
Result :: 1.0

Query :: What is the recorded call for this molecule in the test? CCOC(=O)c1ccc(/N=C/c2ccc(N(CCC#N)S(=O)(=O)c3ccccc3)cc2C)cc1
Result :: 0.0

Query :: // return assay outcome for O=c1nc(NC2CCCCO2)ccn1CCO (stereo not given)
Result :: 0.0

Query :: Recorded call for Cc1c(N/C=C(\C#N)C(=O)c2ccc(Cl)cc2)c(=O)n(-c2ccccc2)n1C ?
Result :: 0.0

Query :: Outcome logged for O=c1[nH]c2cc([N+](=O)[O-])c(Nc3c4ccccc4nc4ccccc34)c([N+](=O)[O-])c2[nH]1 in this assay:
Result :: 0.0

Query :: Assay outcome for O=C(N/C(=C\c1ccc(Cl)cc1)c1nc2ccccc2[nH]1)c1ccccc1 : what was it?
Result :: 0.0

Query :: Hello, I am checking results. What call was entered for COc1ccc(/C=C2\C(=O)Nc3ccccc32)cc1OC ?
Result :: 0.0

Query :: // outcome(item) with item = CC(C)/C(Cl)=N\OC(=O)Nc1ccc(S(N)(=O)=O)cc1
Result :: 0.0

---

# System: HOP-62
# Experiment: NCI tumour cell line growth inhibition, 48 h
Calls of active or inactive are those of the source. Cut-off read from the data, not from the text of the source: active = GI50 up to about 1.1 µM and inactive = higher.
Endpoint Label: GI50

Use these answered entries as a reference point.
N=C(N)N/N=C/c1c(-c2cc([N+](=O)[O-])c(Cl)cc2Cl)nc2n1CCS2    42.4 µM (inactive)
CC/C=C\C/C=C\C/C=C\CCCCCCCC(=O)OC [METHYL LINOLENATE]    > 100 µM (inactive)
Cc1cn([C@@H]2O[C@H](CO)[C@@H](O)[C@@H]2O)c(=O)[nH]c1=O    > 1000 µM (inactive)
Cc1cc2c(c(/C=N/c3ccc(N(C)C)cc3)c1)OC1(C=C2)Oc2ccccc2C(=O)N1C (stereo unspecified)    > 43 µM (inactive)
C[N+](C)(C)CC(=O)N/N=C(/C(=O)Nc1ccc(Br)cc1)C1C(=O)NC(=O)NC1=O    > 100 µM (inactive)
O=C(CC1(O)C(=O)Nc2c(Cl)ccc(Cl)c21)c1ccco1 (stereo unspecified)    29.6 µM (inactive)
O=C(CCCCCCCCC(=O)NN1C(=O)/C(=C\c2ccc(O)c(O)c2)SC1c1ccc(Cl)cc1)NN1C(=O)/C(=C\c2ccc(O)c(O)c2)SC1c1ccc(Cl)cc1 (stereo unspecified)    10.3 µM (inactive)
O=c1[nH]c2cc([N+](=O)[O-])c(Nc3c4ccccc4nc4ccccc34)c([N+](=O)[O-])c2[nH]1    2.67 µM (inactive)
COc1ccc(/C=C/C(=O)c2nc3ccccc3[nH]2)cc1    25.4 µM (inactive)
CCN(CC)c1ccc(/N=N/c2ccc(-c3nc4ccc[n+](C)c4o3)cc2)cc1    16.3 µM (inactive)

Fill in GI50 for each of the 4 compounds listed.
1. NNC(=O)CC(=O)Nc1ccccc1F
2. CCON=C1C(C)(C)C(C)(C)C(C)(C)C1(C)C
3. C[N+](C)(C)CC(=O)NC(=O)N/N=C\C(CC#N)CN(Cc1ccccc1)Cc1ccccc1 (stereo unspecified)
4. O=C1CCC2(CCO1)OCCO2

Result ::
> 100 µM (inactive)
> 100 µM (inactive)
> 100 µM (inactive)
> 100 µM (inactive)

Kindly give each listed record's GI50.
1. O=C(/C=C1\NC(=O)c2ccccc2N1)c1ccncc1
2. CC1=C2CN(C(=O)OCC(C)C)CCC2C2=C(C(=O)c3ccccc3C2=O)C1C (stereo unspecified)
3. C=CC(C)(C)C1(CC(OC)OC)C(=O)N(C)c2ccccc21 (stereo unspecified)
4. Clc1ccc(/C(=C\c2ccccc2)Cn2ccnc2)cc1
5. C[n+]1c2ccccc2n2c3ccccc3c(NCCCN3CCOCC3)c(C#N)c21

Result ::
1: > 100 µM (inactive); 2: > 10 µM (inactive); 3: > 25 µM (inactive); 4: 15.9 µM (inactive); 5: 1.27 µM (inactive)

List GI50 for every entry below, keeping the order given.
1. OC(CC(O)(C(F)(F)F)C(F)(F)F)c1ccc(C(O)CC(O)(C(F)(F)F)C(F)(F)F)cc1 (stereo unspecified)
2. O=C(c1ccco1)N1CCCN(C(=O)c2ccco2)C1=S

Result ::
["17 µM (inactive)", "72.1 µM (inactive)"]

---

# Test system: LOX IMVI
# Experiment: NCI tumour cell line growth inhibition, 48 h
Activity calls are given as the source filed them. Cut-off read from the data, not from the text of the source: active = GI50 up to about 1.1 µM and inactive = higher.
Choose the fitting class; nothing outside 1 (active), 0 (inactive) is accepted.

Query :: For this compound, state the assay outcome: CC1(C2(C)OC(=O)c3ccccc32)OC(=O)c2ccccc21 (stereo not given)
Result :: 0

Query :: Could you kindly confirm the outcome this assay logged for CC[C@@]1(O)C(=O)OCc2c1cc1n(c2=O)Cc2cc3ccccc3nc2-1 ?
Result :: 1

Query :: Test call for this compound, please: Cc1c(CCN2CCOCC2)c(N2CCOCC2)n2c(nc3ccccc32)c1C#N
Result :: 0

Query :: How did this test come out for CC(=N\N=C\c1ccccn1)/C(C)=N/N=C/c1ccccn1 ?
Result :: 0

Query :: Name the outcome recorded for Brc1cccc(C2ON=C(c3ccccc3)N2C23CC4CC(CC(C4)C2)C3)c1 (stereo not given) in the assay.
Result :: 0

---

# Test system: ACHN
# Experiment: NCI tumour cell line growth inhibition, 48 h
Activity calls are given as the source filed them. Rule as the data show it: active = GI50 up to about 1.1 µM and inactive = higher.
Endpoint Label: GI50

O=C1/C(=C/c2ccc(Cl)cc2)CCC1CNc1ccc(Cl)cc1 (stereo not given)    1.57 µM (inactive)
CCOC(=O)/C=C/CC(C)(C)CCOC(C)=O    > 10 µM (inactive)
FC(F)(F)c1ccc2nc(Sc3ccccn3)cnc2c1    16.7 µM (inactive)
CC(C)(C)NCCC(O)c1cc(C(F)(F)F)nc2c(C(F)(F)F)cccc12 (stereo not given)    8.3 µM (inactive)

Then this compound:
Query :: Form field: reported GI50 of COc1cccc(/C=C/C2=NN(c3cccc(S(=O)(=O)O)c3)C3(C2)SCC(=O)N3c2nc3ccccc3s2)c1 (stereo not given)
Result :: 51.8 µM (inactive)

---

# Tested on: LXFL 529
# Experiment: NCI tumour cell line growth inhibition, 48 h
Activity calls are given as the source filed them. No stated cut-off is given here; in the data, active = GI50 up to about 1.1 µM and inactive = higher.
For each of the molecules below, state its GI50.

O=[N+]([O-])c1ccc(Cl)c(C2CC(c3cccc4ccccc34)=Nc3ccccc3S2)c1 (stereo unspecified)    18.5 µM (inactive)
NC(=O)/N=C1/CCC2C3CCCC2C13    > 100 µM (inactive)
CC(C)C(=O)/C=C/c1ccc(Cl)c(Cl)c1    18.7 µM (inactive)
COc1ccc(C(=O)NNC(=O)c2nsc3ccccc23)cc1    > 100 µM (inactive)
CN(C)c1ccc(C2CC(=O)C(C#N)=C(c3ccccc3)NN2C)cc1 (stereo unspecified)    8.28 µM (inactive)

Batch of 5 molecules: report GI50 for each.
1. O=C(CC1(O)C(=O)Nc2c(Cl)ccc(Cl)c21)c1ccco1 (stereo unspecified)
2. CCCCCCCC(=O)OCC1OC(OC)C(NC(=O)N(CCCl)N=O)C(O)C1O (stereo unspecified)
3. COc1ccc2c(c1)O[C@@H]1c3ccc(OC)cc3OC[C@H]21
4. Cc1cc(C)c(-n2c(-c3ccccc3)cs/c2=N\N=C2C=C(C(C)(C)C)C(=O)C(C(C)(C)C)=C2)c(C)c1
5. C=C/C=C(\NC(=O)C(Cl)(Cl)Cl)[Si](C)(C)C

Result ::
["14 µM (inactive)", "16.9 µM (inactive)", "28.8 µM (inactive)", "75.5 µM (inactive)", "> 100 µM (inactive)"]

Query :: // map COC(=O)c1ccccc1N(C(=O)c1ccccc1)c1ccccc1C to recorded GI50 (system: LXFL 529)
Result :: 85.5 µM (inactive)

---

Assignment: determine reported GI50 for the given compounds.
# Tested on: UACC-62
# Experiment: NCI tumour cell line growth inhibition, 48 h
Activity calls are given as the source filed them. Cut-off read from the data, not from the text of the source: active = GI50 up to about 1.1 µM and inactive = higher.

The following compounds have reported results that may help.
O=C(/C=C1\NC(=O)c2ccccc2N1)c1ccncc1    > 100 µM (inactive)
CC(C)(Cl)C(Br)CC/C(=C/CBr)CBr.CC(C)(Cl)C(Br)CC/C(=C\CBr)CBr (stereo not given)    5.01 µM (inactive)
O=C(Cc1ccc(F)cc1)NC1=C(Cl)C(=O)c2ccccc2C1=O    2.53 µM (inactive)

Please give GI50, item by item, for the list that follows.
1. O=C1CCC2(CCO1)OCCO2
2. COC(=O)C1=C(O)C(C(=O)OC)[C@]2(O)[C@H](C(=O)OC)[C@H]1C[C@@H](c1ccc(OC)c(OC)c1)[C@H]2C(=O)OC (stereo not given in full)
3. CCCCCCCCC/C=C1\CCC(CN2CCOCC2)C1=O (stereo not given)
4. O=c1c2ncn(COCCCl)c2n(-c2ccccc2)c(=S)n1-c1ccccc1
5. O=C1[C@@H]2C3c4ccccc4C([C@@H]2C(=O)N1c1ccccc1)S3(=O)=O
6. CCCNC(=S)N/C=C1\C(=O)Nc2ccccc2C1=O
7. CCN1C2=NC(=O)N(C)C(=O)C2(Cl)C(C(SC)S(=O)(=O)c2ccc(C)cc2)c2ccccc21 (stereo not given)

Result ::
1: > 100 µM (inactive); 2: 22.9 µM (inactive); 3: 3.45 µM (inactive); 4: > 100 µM (inactive); 5: > 100 µM (inactive); 6: > 100 µM (inactive); 7: 44.7 µM (inactive)
